- studyTarget: plasmin (Plm) (Homo sapiens)
- Sequence (P00747 581-810 limits assumed, species assumed): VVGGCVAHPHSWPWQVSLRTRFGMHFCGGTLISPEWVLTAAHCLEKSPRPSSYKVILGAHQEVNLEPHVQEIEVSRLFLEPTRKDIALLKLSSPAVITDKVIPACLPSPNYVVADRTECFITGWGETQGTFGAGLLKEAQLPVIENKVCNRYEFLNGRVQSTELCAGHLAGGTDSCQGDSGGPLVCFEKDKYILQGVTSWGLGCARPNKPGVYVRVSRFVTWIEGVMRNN
- Sequence (P00747 97-580 limits assumed, species assumed): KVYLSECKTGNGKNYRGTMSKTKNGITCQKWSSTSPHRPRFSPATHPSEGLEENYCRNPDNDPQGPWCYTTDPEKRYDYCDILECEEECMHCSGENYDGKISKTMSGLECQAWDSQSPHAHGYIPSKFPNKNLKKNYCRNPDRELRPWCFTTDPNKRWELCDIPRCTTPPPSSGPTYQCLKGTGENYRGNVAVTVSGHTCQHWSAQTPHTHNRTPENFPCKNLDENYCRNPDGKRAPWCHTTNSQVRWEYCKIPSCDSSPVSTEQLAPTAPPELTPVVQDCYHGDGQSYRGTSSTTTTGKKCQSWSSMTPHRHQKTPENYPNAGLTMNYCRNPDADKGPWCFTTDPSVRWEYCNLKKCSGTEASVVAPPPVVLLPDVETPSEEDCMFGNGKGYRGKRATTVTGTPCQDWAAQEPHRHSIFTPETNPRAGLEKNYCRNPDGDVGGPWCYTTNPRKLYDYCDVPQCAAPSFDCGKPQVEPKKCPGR
- testProtocol: Fluorogenic enzyme assay (Example 5)
- Assay type: biochemical
- conditionDescription: 10 nM enzyme, substrate 1 μM
- Method: Enzyme assays (except factor VIIa assays, see below) were conducted in 20 mM Tris, 150 mM NaCl, pH 7.4 (TBS) at room temperature (22° C.). The final volume for all reaction mixtures was 2.0 ml. […] Enzyme was added to mixtures containing buffer components and substrate and the initial rate of substrate hydrolysis was measured as the change in fluorescent intensity over time, corresponding to the generation of the particular 6-amino-1-naphthalenesulfonamide fluorophore from the provided substrate. […]
observedProperty: TIME TO 10% HYDROLYSIS (HOURS), Plm (h)
# value in h; strip the unit string

Below, each entry is followed by its recorded TIME TO 10% HYDROLYSIS (HOURS), Plm result.
> print(dat)
                            structuresmiles  numericreadout
1  CCCNS(=O)(=O)c1cccc2cc(NC(=O)[C@H](CCCNC(=N)N)NC(=O)[C@H](Cc3ccccc3)NC(=O)[C@@H]3CCCN3)ccc12.Cl.Cl              13
2  Cc1ccc(S(=O)(=O)NCC(=O)N2CCC[C@H]2C(=O)N[C@@H](CCCNC(=N)N)C(=O)Nc2ccc3c(S(=O)(=O)NCC(C)C)cccc3c2)cc1            0.25
3  CCCNS(=O)(=O)c1cccc2cc(NC(=O)[C@H](CCCNC(=N)N)NC(=O)[C@H](Cc3ccccc3)NC(=O)[C@@H]3CCCN3C(=O)OC(C)(C)C)ccc12              22

## Input So what's the measured TIME TO 10% HYDROLYSIS (HOURS), Plm for this one? Br.Br.CC(C)C[C@@H](N)C(=O)N1CCC[C@H]1C(=O)N[C@@H](CCCNC(=N)N)C(=O)Nc1ccc2c(S(=O)(=O)N3CCCCC3)cccc2c1
## Output 0.33

## Input So what's the measured TIME TO 10% HYDROLYSIS (HOURS), Plm for this one? CC(C)C[C@@H](NC(=O)OCc1ccccc1)C(=O)N1CCC[C@H]1C(=O)N[C@@H](CCCNC(=N)N)C(=O)Nc1ccc2c(S(=O)(=O)N3CCCCC3)cccc2c1
## Output 0.08

## Input So what's the measured TIME TO 10% HYDROLYSIS (HOURS), Plm for this one? N=C(N)NCCC[C@H](NC(=O)CNC(=O)CNC(=O)OCc1ccccc1)C(=O)N[C@@H](CCCNC(=N)N)C(=O)Nc1ccc2c(S(=O)(=O)NC3CCCCC3)cccc2c1
## Output 47

## Input So what's the measured TIME TO 10% HYDROLYSIS (HOURS), Plm for this one? CCN(CC)S(=O)(=O)c1cccc2cc(NC(=O)[C@H](CCCNC(=N)N)NC(=O)CNC(=O)[C@@H](CC(C)C)NS(C)(=O)=O)ccc12
## Output 1

---

- studyTarget: factor Xa (Homo sapiens)
- Sequence (P00742 235-488 limits assumed): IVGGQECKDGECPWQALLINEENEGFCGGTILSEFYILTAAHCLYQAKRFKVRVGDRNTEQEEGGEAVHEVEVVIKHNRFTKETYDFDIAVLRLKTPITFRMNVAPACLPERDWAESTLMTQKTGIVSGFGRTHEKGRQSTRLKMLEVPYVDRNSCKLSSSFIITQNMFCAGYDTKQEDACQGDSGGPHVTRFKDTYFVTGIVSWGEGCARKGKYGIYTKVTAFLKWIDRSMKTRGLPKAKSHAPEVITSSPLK
- Sequence (P00742 41-179 limits assumed): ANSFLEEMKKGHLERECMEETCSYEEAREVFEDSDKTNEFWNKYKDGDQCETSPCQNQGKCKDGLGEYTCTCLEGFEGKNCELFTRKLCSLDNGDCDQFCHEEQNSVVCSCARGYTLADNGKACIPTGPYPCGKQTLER
- testProtocol: Fluorogenic enzyme assay (Example 5)
- Format: biochemical
- conditionDescription: enzyme 100 nM, substrate 1 μM
- Procedure: Enzyme assays (except factor VIIa assays, see below) were conducted in 20 mM Tris, 150 mM NaCl, pH 7.4 (TBS) at room temperature (22° C.). The final volume for all reaction mixtures was 2.0 ml. […] Enzyme was added to mixtures containing buffer components and substrate and the initial rate of substrate hydrolysis was measured as the change in fluorescent intensity over time, corresponding to the generation of the particular 6-amino-1-naphthalenesulfonamide fluorophore from the provided substrate. […]
Catalogue of Time (min) for 10% hydrolysis, Xa values
# value in min; strip the unit string

Below, each entry is followed by its recorded Time (min) for 10% hydrolysis, Xa result.
> print(dat)
                            structuresmiles  unit  numericreadout
1  Br.CC(C)NS(=O)(=O)c1cccc2cc(NC(=O)[C@H](CCCNC(=N)N)NC(=O)OCc3ccccc3)ccc12   min              36
2  Br.CNS(=O)(=O)c1cccc2cc(NC(=O)[C@H](CCCNC(=N)N)NC(=O)OCc3ccccc3)ccc12   min              25
3  Br.CN(C)S(=O)(=O)c1cccc2cc(NC(=O)[C@H](CCCNC(=N)N)NC(=O)OCc3ccccc3)ccc12   min              15
4  Br.N=C(N)NCCC[C@H](NC(=O)OCc1ccccc1)C(=O)Nc1ccc2c(S(=O)(=O)N3CCCCCC3)cccc2c1   min              20

## Input So what's the measured Time (min) for 10% hydrolysis, Xa for this one? Br.N=C(N)NCCC[C@H](NC(=O)OCc1ccccc1)C(=O)Nc1ccc2c(S(=O)(=O)NCc3ccccc3)cccc2c1
## Output 46

## Input So what's the measured Time (min) for 10% hydrolysis, Xa for this one? Br.CCN(CC)S(=O)(=O)c1cccc2cc(NC(=O)[C@H](CCCNC(=N)N)NC(=O)OCc3ccccc3)ccc12
## Output 14
